Exercise: for every item that follows, state its recorded normalized growth.
- experimental_protocol: chemical genetic growth profiling, strain panel (AID 1159580);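 note: tested at 20 µM; growth read once vehicle control cultures reached saturation at 30 °C; 1 = growth at the plate median or of vehicle wells; lower values mean less growth of the strain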
- assay_conditions: S. cerevisiae deletion strains, growth OD, locus YHR082C, strain KSP1, stronger effect = lower value
Screen size: about 5,500 compounds; about 2,000 (36%) were called active. Not shown: some 18% with an inconclusive outcome. This is one part of the list.
Answers are plain numbers.

Reference set, count: 2
| compound | normalized growth |
| --- | --- |
| O=C(CCSc1cccs1)Nc1cccc(C(F)(F)F)c1 | 0.884 |
| O=C(NCc1ccco1)c1csc(C2COc3ccccc3O2)n1 (stereo not given) | 0.896 |

Your task in this section: give normalized growth for each listed record.
1. COc1cc(C(=O)Oc2c(Cl)cc(Cl)cc2C=Nc2cccc(C(F)(F)F)c2)cc(OC)c1OC
2. CCOC(=O)c1c(N=Cc2cc(Br)c(Br)cc2O)sc2c1CCCC2
3. CCCC1c2ccsc2CCN1C(=S)Nc1ccc(Cl)cc1Cl (stereo not given)
4. CCc1cc2c(cc1-c1csc(C/C(N)=N\O)n1)C(C)(C)CCC2(C)C
5. COc1cc(C(=O)Oc2c(Cl)cc(Cl)cc2C=Nc2ccc([N+](=O)[O-])cc2C#N)cc(OC)c1OC
6. O=C(Nc1ccccn1)c1cc(-c2ccccc2)c(C(F)(F)F)s1
7. OC(c1ccc(C(F)(F)F)cc1)c1cccc(C(F)(F)F)c1 (stereo not given)

Result string:
1. 0.484
2. 0.368
3. 0.987
4. 0.647
5. 0.497
6. 0.918
7. 1.09

Query string: Which normalized growth value belongs to COCCOc1ccccc1NC(=S)SCCSC(=S)Nc1ccccc1OCCOC ?
Result string: 1.01
